Target: native soluble IL-6R in human plasma (human, UniProt P08887)
Test: ELISA 3, periplasmic extract; competitor BN-12; human plasma
assay endpoint: OD450 ratio sample/blank

# binder, data value
rows = [
    ("IL6RPMP105D3 (VHH) VHH: EVQLEESGGGLVQAGGSLRLSCAASGSIFRINAMGWYRQAPGKQRELVAAAISGGSTNYADFVKGRFTISRDNAKNTVYLQMNSLKPEDTAVYYCNALVVSHNYSDYVPFPDDYWGQGTQVTVSS", 1.01),
    ("IL6RPMP101G2 (VHH) VHH: EVQLVESGGGLVQAGGSLRLSCAASGSIFRINAMGWYRQAPGKQRELVAAAISGGSTNYADFVKGRFTISRDNAKNTVYLQMNSLKPEDTAVYYCNALVVSHNYSDYVPFPDDYWGQGTQVTVSS", 0.975),
    ("IL6RPMP119A10 (VHH) VHH: EVQLVESGGGLVQPGGSLRLSCAASKSIFDINAMYWHRQAPGKQRESVASITSGGMRNYADSVKDRFTISKDNAKNTVYLQMNGLKPDDTAVYYCGLGRYEGGVWRDYWGQGTQVTVSS", 0.989),
    ("IL6RPMP107G10 (VHH) VHH: EVQLVESGGGLVQAGGSLRLSCAASGSIENINAMGWYRQAPGKQRDFLAIITDGSKTLYADSVKGRFTISNDNAKNTVYLQMNSLKPEDTAVYYCNAYQAGWGDYWGQGTQVTVSS", 1.01),
    ("IL6RPMP108D10 (VHH) VHH: EVQLVESGGGSVQAGGSLRLSCTASGRTFSDYDMGWFRQAPGKERECVAVIDTNGDNTLTVGSVKGRFAISRDNAKNTVYLQMNSLLPEDTAVYTCAAGAWSSLRSTAANYWGQGTQVTVSS", 1.03),
    ("IL6RPMP103C4 (VHH) VHH: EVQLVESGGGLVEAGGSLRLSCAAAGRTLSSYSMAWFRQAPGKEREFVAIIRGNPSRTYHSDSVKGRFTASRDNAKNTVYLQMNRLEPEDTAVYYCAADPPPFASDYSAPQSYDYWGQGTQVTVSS", 1),
    ("IL6RPMP101F6 (VHH) VHH: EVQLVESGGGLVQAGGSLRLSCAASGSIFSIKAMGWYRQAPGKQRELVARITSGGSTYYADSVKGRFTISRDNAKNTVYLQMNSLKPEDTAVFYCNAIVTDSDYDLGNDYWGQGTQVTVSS", 0.947),
    ("IL6RPMP120F4 (VHH) VHH: EVQLVESGGGLVQTGGSLRLSCAVSGRTDSTASVGWFRQAPGKQREWVVGISSGGSTHYADSVKGRFISSQDDAKNTVYLQMNSLKPEDTAIYYCAIAHGSSTYNYWGQGTQVTVSS", 0.923),
]
